Source listed as PubChem BioAssay AID1745844.

tested on: rodent lifetime carcinogenesis bioassay, tumor incidence TD50; assay: carcinogenic potency in animals, long-term in vivo studies, CPDB compilation (AID 1745844); conditions: rat; strain Fischer 344; males; in drinking water; site: lung; lesion: adenocarcinoma; dosed 111 weeks; study length 111 weeks
PROPERTY_LABEL: TD50

Value of TD50 reported for the compound CN(CCCC(=O)c1cccnc1)N=O is 0.148 mg/kg/day

----------
// values below are reported TD50
system: rodent lifetime carcinogenesis bioassay, tumor incidence TD50; experiment: carcinogenic potency in animals, long-term in vivo studies, CPDB compilation (AID 1745844); conditions: mouse; strain B6C3F1; males; by gavage; site: any site (literature study); lesion: several types; types named in the paper; dosed 103 weeks; study length 104 weeks
Calls of active or inactive are those of the source. The rule behind the calls is not given here.

Example entries begin here.
CC(CN1c2ccccc2Sc2ccccc21)N(C)C (stereo unspecified) ... 393 mg/kg/day (inactive)
CN(C)CCC(c1ccc(Cl)cc1)c1ccccn1 (stereo unspecified) ... 54.1 mg/kg/day
O=c1ccc2ccccc2o1 ... 461 mg/kg/day
O=Cc1ccco1 ... 165 mg/kg/day
COC(N)=O ... 5220 mg/kg/day (inactive)

Next up:
Value of TD50 reported for the compound O=C1CCc2ccccc2O1 is 1400 mg/kg/day
